# System: Mtb H37Rv
# Test Protocol: TB MIC - SRI, resazurin-based microplate assay
# Format: cell-based, Mycobacterium tuberculosis
# Condition Notes: Mycobacterium tuberculosis, H37RV, Table 5; read-out: MIC, H37Rv
Can you tell me MIC for the items I'm about to list?
Number in µg/mL, nothing else.

Enquiry: Return reported MIC; argument: CN(C)c1n[n+]([O-])c2cc3c(cc2[n+]1[O-])CCC3 [Compound 20s]
Return: 0.62

Enquiry: Return reported MIC; argument: CC(C)(C)Nc1n[n+]([O-])c2ccccc2[n+]1[O-] [Compound 8c]
Return: 2.5

Enquiry: What measured MIC goes with [O-][n+]1nc(N2CCCC2)[n+]([O-])c2ccccc21 [Compound 17q] ?
Return: 0.31
